- assayed-system: Tyrosine-protein phosphatase non-receptor type 11 (Homo sapiens, UniProt Q06124)
- Sequence (Q06124 whole entry): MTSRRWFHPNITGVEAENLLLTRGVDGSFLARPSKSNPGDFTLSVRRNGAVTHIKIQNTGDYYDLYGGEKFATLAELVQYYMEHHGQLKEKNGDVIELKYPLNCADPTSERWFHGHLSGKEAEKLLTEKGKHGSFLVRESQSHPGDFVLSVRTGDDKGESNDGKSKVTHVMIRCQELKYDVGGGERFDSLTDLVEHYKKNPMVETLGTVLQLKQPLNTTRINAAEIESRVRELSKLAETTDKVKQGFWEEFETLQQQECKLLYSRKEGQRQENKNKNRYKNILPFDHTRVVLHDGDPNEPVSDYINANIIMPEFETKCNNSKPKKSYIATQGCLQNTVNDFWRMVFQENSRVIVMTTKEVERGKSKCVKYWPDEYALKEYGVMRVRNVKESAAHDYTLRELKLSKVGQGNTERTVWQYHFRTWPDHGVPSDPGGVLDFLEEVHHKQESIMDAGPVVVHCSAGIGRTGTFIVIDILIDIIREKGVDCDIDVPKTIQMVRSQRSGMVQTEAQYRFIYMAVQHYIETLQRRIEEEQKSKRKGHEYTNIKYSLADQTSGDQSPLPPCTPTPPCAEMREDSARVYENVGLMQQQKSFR
- protocol-description: Inhibition of full length wild type recombinant human IRS-1 peptide activated SHP2 (1 to 525 residues) using DIPMUP as substrate preincubated for 30 mins followed by substrate addition and measured after 30 mins by fluorescence based analysis
recorded-endpoint: IC50 (µM)
Please give a number only; it is taken to be in µM.

Below: 2 molecules and their reported IC50.
CC1(N)CCN(c2nnc(Sc3ccc4ccccc4c3)s2)CC1; 0.72
CC1(CN)CCN(c2nnc(Sc3cccc(Cl)c3Cl)s2)CC1; 1.12

Problem: Form field: reported IC50 of "COc1ccc2cc(-c3nnc(N4CCC(C)(N)CC4)s3)ccc2c1"
Solution: 4.95

Problem: And then "CC1(N)CCN(c2nnc(Sc3ccccc3F)s2)CC1" , what is it?
Solution: 6.99

Problem: And then "CC1(N)CCN(c2nnc(Sc3cccc4cccnc34)s2)CC1" , what is it?
Solution: 4.51

Problem: And then "CC1(N)CCN(c2nnc(-c3ccc4ccccc4c3)s2)CC1" , what is it?
Solution: 4.35

Problem: And then "CC1(N)CCN(c2nnc(Sc3cccc(Cl)c3Cl)s2)CC1" , what is it?
Solution: 0.97

Problem: And then "NCC1CCN(c2nnc(Sc3cccc(Cl)c3Cl)s2)CC1" , what is it?
Solution: 3.82
